log10 of IC90 for assorted compounds
Test system: Plasmodium falciparum
Test: Antimalarial activity against chloroquine-resistant and mefloquine-sensitive Plasmodium falciparum W2 assessed as inhibition of [3H]hypoxanthine incorporation by liquid scintillation spectrometry
Format: functional
readout: log10 of IC90 (log10 of the value in µg/mL)

compound | observed
CC(CN1CCCC1)NCC(O)c1cc(C(F)(F)F)nc2c(C(F)(F)F)cccc12 (centres undefined) | -1.96
CN(CCNCC(O)c1cc(C(F)(F)F)nc2c(C(F)(F)F)cccc12)C1CCCC1 (centres undefined) | -1.96
OC(CNC[C@]12CCC[C@H]1CNC2)c1cc(C(F)(F)F)nc2c(C(F)(F)F)cccc12 (some centres undefined) | -0.07
OC(c1cc(C(F)(F)F)nc2c(C(F)(F)F)cccc12)C1CCCCN1 (centres undefined) | -2.17
OC(CNCCN1CCCC1)c1cc(C(F)(F)F)nc2c(C(F)(F)F)cccc12 (centres undefined) | -0.96
OC(NC[C@H]1CCCN1)c1cc(C(F)(F)F)nc2c(C(F)(F)F)cccc12 (some centres undefined) | -2.10

---

Test: Apparent permeability from apical to basolateral side of dog MDCK cells at 5 uM after 2 hrs by LC/MS/MS analysis
Type: ADME, cell-based, Canis lupus familiaris
readout: Papp A→B at 2 h, 5 µM

compound | readout | observed
OC(CNCCNC1CC1)c1cc(C(F)(F)F)nc2c(C(F)(F)F)cccc12 (stereo not drawn) | Papp A→B at 2 h, 5 µM | 2.8 ×10⁻⁶ cm/s
Cc1ccc(S(=O)(=O)N(CCN2CCCCC2)CC(O)c2cc(C(F)(F)F)nc3c(C(F)(F)F)cccc23)cc1 (stereo not drawn) | Papp A→B at 2 h, 5 µM | 2.5 ×10⁻⁶ cm/s
CC(C)(CN1CC2CCC1C2)NCC(O)c1cc(C(F)(F)F)nc2c(C(F)(F)F)cccc12 (stereo not drawn) | Papp A→B at 2 h, 5 µM | 25.1 ×10⁻⁶ cm/s
CC(CNC1CCCCC1)NCC(O)c1cc(C(F)(F)F)nc2c(C(F)(F)F)cccc12 (stereo not drawn) | Papp A→B at 2 h, 5 µM | 9.6 ×10⁻⁶ cm/s
CC(CN1CCCC1)NCC(O)c1cc(C(F)(F)F)nc2c(C(F)(F)F)cccc12 (stereo not drawn) | Papp A→B at 2 h, 5 µM | 33.1 ×10⁻⁶ cm/s
CC(C)(C)NCCNCC(O)c1cc(C(F)(F)F)nc2c(C(F)(F)F)cccc12 (stereo not drawn) | Papp A→B at 2 h, 5 µM | 11.2 ×10⁻⁶ cm/s
CNCCN(CC(O)c1cc(C(F)(F)F)nc2c(C(F)(F)F)cccc12)CC(O)c1cc(C(F)(F)F)nc2c(C(F)(F)F)cccc12 (stereo not drawn) | Papp A→B at 2 h, 5 µM | 0.3 ×10⁻⁶ cm/s
CC(CNC(C)(C)C)NCC(O)c1cc(C(F)(F)F)nc2c(C(F)(F)F)cccc12 (stereo not drawn) | Papp A→B at 2 h, 5 µM | 13.1 ×10⁻⁶ cm/s
CC(CNC1CCCC1)NCC(O)c1cc(C(F)(F)F)nc2c(C(F)(F)F)cccc12 (stereo not drawn) | Papp A→B at 2 h, 5 µM | 11.1 ×10⁻⁶ cm/s
OC(CNCCNc1ccccc1)c1cc(C(F)(F)F)nc2c(C(F)(F)F)cccc12 (stereo not drawn) | Papp A→B at 2 h, 5 µM | 13 ×10⁻⁶ cm/s
CC1CCN(CC(C)(C)NCC(O)c2cc(C(F)(F)F)nc3c(C(F)(F)F)cccc23)CC1 (stereo not drawn) | Papp A→B at 2 h, 5 µM | 44.2 ×10⁻⁶ cm/s
CC(C)NCCNCC(O)c1cc(C(F)(F)F)nc2c(C(F)(F)F)cccc12 (stereo not drawn) | Papp A→B at 2 h, 5 µM | 12.7 ×10⁻⁶ cm/s
CNCCN(C)CC(O)c1cc(C(F)(F)F)nc2c(C(F)(F)F)cccc12 (stereo not drawn) | Papp A→B at 2 h, 5 µM | 5.66 ×10⁻⁶ cm/s
OC(CNCCNC1CCC1)c1cc(C(F)(F)F)nc2c(C(F)(F)F)cccc12 (stereo not drawn) | Papp A→B at 2 h, 5 µM | 8.54 ×10⁻⁶ cm/s
OC(CNCCNC1CCCC1)c1cc(C(F)(F)F)nc2c(C(F)(F)F)cccc12 (stereo not drawn) | Papp A→B at 2 h, 5 µM | 3 ×10⁻⁶ cm/s
CC(CNC1CCC1)NCC(O)c1cc(C(F)(F)F)nc2c(C(F)(F)F)cccc12 (stereo not drawn) | Papp A→B at 2 h, 5 µM | 10.4 ×10⁻⁶ cm/s
OC(CNCCN(C1CCCCC1)C1CCCCC1)c1cc(C(F)(F)F)nc2c(C(F)(F)F)cccc12 (stereo not drawn) | Papp A→B at 2 h, 5 µM | 24.7 ×10⁻⁶ cm/s
CC1CC(C)CN(CCNCC(O)c2cc(C(F)(F)F)nc3c(C(F)(F)F)cccc23)C1 (stereo not drawn) | Papp A→B at 2 h, 5 µM | 32.7 ×10⁻⁶ cm/s

Ref: ChEMBL document CHEMBL1821574
